- System: Mus musculus
- ASSAY METHOD TEXT: Toxicity in ip dosed C3H/DBA2F1 hybrid mouse allografted with mouse L1210 cells administered for 5 days measured up to 8 days
- Assay type: organism-based
- COND: in vivo
Outcome: met for LD10 of at least 100 mg/kg; not met for anything lower.

Use the examples below as a reference point.
Cc1cccc2c(Nc3ccc(CC(=O)O)cc3)c3ccccc3nc12	not met
CN(C)C(=O)CCCc1ccc(Nc2c3ccccc3nc3ccccc23)cc1.Cl	not met
CS(=O)(=O)O.NC(=O)CCCCc1ccc(Nc2c3ccccc3nc3ccccc23)cc1	met

Request: I'd appreciate it if you could say whether `CCCS(=O)(=O)Nc1ccc(Nc2c3ccccc3nc3ccccc23)cc1` has LD10 at least equal to 100 mg/kg.
Result: met

Request: I'd appreciate it if you could say whether `O=C(O)CCCCc1ccc(Nc2c3ccccc3nc3ccccc23)cc1` has LD10 at least equal to 100 mg/kg.
Result: met

Request: I'd appreciate it if you could say whether `CC(=O)Nc1ccc2c(=Nc3ccc(CCC(=O)O)cc3)c3ccccc3[nH]c2c1.Cl` has LD10 at least equal to 100 mg/kg.
Result: met

Where do the numbers come from? From ChEMBL document CHEMBL3244004.
